Reference source: paper PMC11661456

target desc: AbBioC methyltransferase (Acinetobacter baumannii, UniProt A0A1E3M3A7)
Sequence (A0A1E3M3A7 1-249): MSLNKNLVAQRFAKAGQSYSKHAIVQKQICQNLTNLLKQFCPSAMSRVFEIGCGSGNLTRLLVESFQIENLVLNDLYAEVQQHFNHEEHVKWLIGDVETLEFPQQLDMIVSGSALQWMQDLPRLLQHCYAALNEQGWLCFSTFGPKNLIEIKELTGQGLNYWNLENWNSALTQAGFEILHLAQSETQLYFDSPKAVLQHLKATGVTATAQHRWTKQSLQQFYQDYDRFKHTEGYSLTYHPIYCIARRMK
Assay type: biochemical, A. baumannii
assay metric: Ki

Nc1ncnc2c1ncn2[C@@H]1O[C@H](C[C@@H](N)CC[C@H](N)C(=O)O)[C@@H](O)[C@H]1O [SIN, sinefungin]
~370 nM
